System: wild type Coker 312 line
Experiment: Post-emergence herbicide tolerance field trial Argentina
Format: in vivo, cotton
Settings: 4x, 24 DAT
In this section, each of the molecules is paired with its reported Plant response (chlorosis, bleaching and necrosis).
measured-parameter: Plant response (chlorosis, bleaching and necrosis)

molecule	numeric-value
O=C(O)CNCP(=O)(O)O [Gly, glyphosate]	99.3
CS(=O)(=O)c1ccc(C(=O)C2C(=O)CCCC2=O)c(Cl)c1COCC(F)(F)F	99.2
Cc1c(C(=O)c2cnn(C)c2O)ccc(S(C)(=O)=O)c1C1=NOCC1	100.0
CS(=O)(=O)c1cc(C(F)(F)F)ccc1C(=O)c1cnoc1C1CC1	81.5
